# subject-of-test: T1, Biotinylated human BSSL (human, UniProt P19835 21-753, Biotinylated on glycosacarides, 30-40 biotin/BSSL)
# T1 construct: hBSSL biotinylated in house; also called b-hBSSL; human BSSL-biotin
# T1 sequence: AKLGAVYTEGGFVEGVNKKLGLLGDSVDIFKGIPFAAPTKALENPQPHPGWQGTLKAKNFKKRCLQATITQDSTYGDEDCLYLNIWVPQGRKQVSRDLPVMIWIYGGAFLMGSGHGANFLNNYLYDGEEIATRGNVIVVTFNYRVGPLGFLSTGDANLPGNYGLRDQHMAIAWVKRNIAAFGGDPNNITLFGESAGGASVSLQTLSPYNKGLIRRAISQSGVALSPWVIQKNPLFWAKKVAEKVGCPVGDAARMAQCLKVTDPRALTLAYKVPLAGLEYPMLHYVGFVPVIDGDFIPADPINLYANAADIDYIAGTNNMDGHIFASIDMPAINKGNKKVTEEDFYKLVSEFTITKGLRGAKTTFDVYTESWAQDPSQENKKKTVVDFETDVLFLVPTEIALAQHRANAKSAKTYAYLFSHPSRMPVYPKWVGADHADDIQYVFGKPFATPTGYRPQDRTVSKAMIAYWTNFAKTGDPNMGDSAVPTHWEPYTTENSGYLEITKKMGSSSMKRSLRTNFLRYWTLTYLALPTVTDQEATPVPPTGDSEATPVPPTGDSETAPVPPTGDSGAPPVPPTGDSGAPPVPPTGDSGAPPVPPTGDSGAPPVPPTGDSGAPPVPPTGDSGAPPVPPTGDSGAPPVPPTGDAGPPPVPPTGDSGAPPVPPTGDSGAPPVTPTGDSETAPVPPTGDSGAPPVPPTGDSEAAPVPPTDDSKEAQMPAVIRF
# method-summary: flow cytometry displacement assay; 1.0 ug antibody, 1 ug b-hBSSL
Overview of recorded percentage reduction of b-hBSSL binding to CD14+ monocytes for various binders
measurement-name: percentage reduction of b-hBSSL binding to CD14+ monocytes (%)

{"binder": "S-SL048-65 hIgG4 S228P (antibody, V domains shown, Tested as human IgG4 S228P) VH: QVQLVQSGAEVKKPGASVKVSCKASGYTFTSYNMHWVRQAPGQGLEWIGVINPGDGATSYAQKFKGRVTMTRDTSTSTVYMELSSLRSEDTAVYYCARDYYGSSPLGYWGQGTLVTVSS VL: DIQMTQSPSSLSASVGDRVTITCSASQSISYLNWYQQKPGKAPKLLIYDASSLPSGVPSRFSGSGSGTDFTLTISSLQPEDFATYYCHQRSSSPTFGQGTKLEIK", "value": 23}
{"binder": "S-SL048-38 hIgG4 S228P (antibody, V domains shown, Tested as human IgG4 S228P) VH: QVQLVQSGAEVKKPGASVKVSCKASGYTFTSYNMHWVRQAPGQGLEWMGVINPGDGATSYAQKFQGRVTMTRDTSTSTVYMELSSLRSEDTAVYYCARDYYGSSPLGYWGQGTLVTVSS VL: DIQMTQSPSSLSASVGDRVTITCRASPSISYLNWYQQKPGKAPKLLIYATSSLASGVPSRFSGSGSGTDFTLTISSLQPEDFATYYCQQRSSSPTFGQGTKLEIK", "value": 44}
{"binder": "S-SL048-103 hIgG4 S228P (antibody, V domains shown, Tested as human IgG4 S228P) VH: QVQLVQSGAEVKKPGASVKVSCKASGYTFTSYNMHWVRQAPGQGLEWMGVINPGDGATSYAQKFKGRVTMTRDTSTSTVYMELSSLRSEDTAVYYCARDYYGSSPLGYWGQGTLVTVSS VL: DIQMTQSPSSLSASVGDRVTITCRASSSISYMHWYQQKPGKAPKLLIYATSSLASGVPSRFSGSGSGTDFTLTISSLQPEDFATYYCHQRSSSPTFGQGTKLEIK", "value": -1}
{"binder": "S-SL048-11 hIgG4 S228P (antibody, V domains shown, also called clone 11; mAb11) VH: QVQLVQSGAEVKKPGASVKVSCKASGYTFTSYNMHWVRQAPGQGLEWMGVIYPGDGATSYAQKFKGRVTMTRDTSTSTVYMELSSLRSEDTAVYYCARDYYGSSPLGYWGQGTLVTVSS VL: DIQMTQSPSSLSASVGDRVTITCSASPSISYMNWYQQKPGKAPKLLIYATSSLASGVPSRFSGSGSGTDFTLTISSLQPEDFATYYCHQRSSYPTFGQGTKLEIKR", "value": 9}
